- MEASURED TARGET: ZBTB7A (Homo sapiens, UniProt O95365+Q96SW2)
- Construct: HUDEP-2 cells engineered to express a HiBiT tag in either the WIZ (Widely interspaced zinc finger) or ZBTB7A
- Sequence (O95365 whole entry): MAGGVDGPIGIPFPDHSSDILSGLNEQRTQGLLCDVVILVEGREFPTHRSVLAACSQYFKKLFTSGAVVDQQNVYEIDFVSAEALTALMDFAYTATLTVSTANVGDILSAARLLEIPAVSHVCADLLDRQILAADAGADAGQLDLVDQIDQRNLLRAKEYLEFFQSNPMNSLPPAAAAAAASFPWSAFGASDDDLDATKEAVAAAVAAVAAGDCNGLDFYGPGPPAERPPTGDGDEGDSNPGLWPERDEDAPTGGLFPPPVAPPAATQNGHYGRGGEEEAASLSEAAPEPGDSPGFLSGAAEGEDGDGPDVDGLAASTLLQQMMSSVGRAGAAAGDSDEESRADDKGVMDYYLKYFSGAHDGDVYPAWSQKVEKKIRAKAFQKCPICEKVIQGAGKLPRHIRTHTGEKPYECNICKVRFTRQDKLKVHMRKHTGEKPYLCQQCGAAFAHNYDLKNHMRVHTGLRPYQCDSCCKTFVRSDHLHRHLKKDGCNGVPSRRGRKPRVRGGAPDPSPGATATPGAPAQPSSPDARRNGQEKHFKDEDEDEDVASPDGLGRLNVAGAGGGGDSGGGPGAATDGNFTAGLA
- Sequence (Q96SW2 whole entry): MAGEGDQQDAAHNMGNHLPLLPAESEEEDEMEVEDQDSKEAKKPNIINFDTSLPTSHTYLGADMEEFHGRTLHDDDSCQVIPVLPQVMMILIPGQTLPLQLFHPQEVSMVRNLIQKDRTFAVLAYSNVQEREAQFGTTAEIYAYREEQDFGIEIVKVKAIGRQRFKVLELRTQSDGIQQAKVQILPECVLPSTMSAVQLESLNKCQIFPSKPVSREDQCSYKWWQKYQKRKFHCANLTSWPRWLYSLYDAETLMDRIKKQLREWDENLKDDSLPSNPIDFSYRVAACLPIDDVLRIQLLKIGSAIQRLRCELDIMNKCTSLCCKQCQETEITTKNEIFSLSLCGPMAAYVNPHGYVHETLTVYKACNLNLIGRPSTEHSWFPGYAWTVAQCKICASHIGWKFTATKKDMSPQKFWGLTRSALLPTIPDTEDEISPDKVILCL
- Sequence (Q16531 whole entry partner): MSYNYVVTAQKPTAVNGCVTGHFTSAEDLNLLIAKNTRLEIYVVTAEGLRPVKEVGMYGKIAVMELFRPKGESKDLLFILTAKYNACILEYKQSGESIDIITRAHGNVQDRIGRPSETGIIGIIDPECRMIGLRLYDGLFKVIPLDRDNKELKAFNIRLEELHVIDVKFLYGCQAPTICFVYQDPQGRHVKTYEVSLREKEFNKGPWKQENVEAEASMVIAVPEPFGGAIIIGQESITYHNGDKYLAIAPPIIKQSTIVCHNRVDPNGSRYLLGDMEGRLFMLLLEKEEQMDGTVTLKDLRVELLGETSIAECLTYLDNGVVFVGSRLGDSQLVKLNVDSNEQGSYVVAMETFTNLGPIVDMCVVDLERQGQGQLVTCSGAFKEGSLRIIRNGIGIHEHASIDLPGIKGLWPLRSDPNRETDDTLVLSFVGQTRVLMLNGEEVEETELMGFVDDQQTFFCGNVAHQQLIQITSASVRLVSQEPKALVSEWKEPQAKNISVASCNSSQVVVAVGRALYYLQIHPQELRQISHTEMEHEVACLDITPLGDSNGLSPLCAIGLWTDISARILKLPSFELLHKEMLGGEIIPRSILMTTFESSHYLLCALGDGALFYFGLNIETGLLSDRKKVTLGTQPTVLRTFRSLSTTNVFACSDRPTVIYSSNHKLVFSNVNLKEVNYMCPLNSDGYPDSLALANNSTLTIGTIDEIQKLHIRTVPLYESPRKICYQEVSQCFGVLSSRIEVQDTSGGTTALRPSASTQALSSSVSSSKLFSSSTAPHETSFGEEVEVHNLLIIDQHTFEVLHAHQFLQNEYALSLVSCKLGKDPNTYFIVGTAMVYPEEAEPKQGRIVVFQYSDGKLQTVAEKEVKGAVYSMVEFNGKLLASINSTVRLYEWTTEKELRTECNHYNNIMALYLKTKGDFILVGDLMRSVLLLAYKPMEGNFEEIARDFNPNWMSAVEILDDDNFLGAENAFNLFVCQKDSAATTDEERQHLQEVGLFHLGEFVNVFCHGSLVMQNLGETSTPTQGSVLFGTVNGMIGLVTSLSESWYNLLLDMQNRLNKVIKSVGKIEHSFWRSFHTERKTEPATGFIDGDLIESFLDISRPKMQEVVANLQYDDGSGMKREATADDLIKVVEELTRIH
- ASSAY NAME: HUDEP-2 ZBTB7A HiBiT degradation assay
- Type: cell-based
- MEASUREMENT PARAMETERS: HiBiT-tagged ZBTB7A degradation in HUDEP-2 cells, 24 hours of treatment; read-out: ZBTB7A EC50
MEASUREMENT TYPE: DC50 (nM)

(a) Cc1cc(-c2cc3c(cc2Nc2cccc4c2C(=O)N([C@H]2CCC(=O)NC2=O)C4=O)N(C)C(=O)CO3)cc(C(F)F)n1
(b) CCO[C@H]1CC[C@H](c2cc3c(cc2Nc2cccc4c2C(=O)N([C@@H]2CCC(=O)NC2=O)C4=O)N(C)C(=O)[C@H](C)O3)CC1
(c) CN1C(=O)COc2cc([C@H]3CC[C@H](C#N)CC3)c(Nc3cccc4c3C(=O)N([C@H]3CCC(=O)NC3=O)C4=O)cc21
(d) CC(=O)N1CCCC(c2cc3c(cc2Nc2cccc4c2C(=O)N([C@H]2CCC(=O)NC2=O)C4=O)N(C)C(=O)CO3)C1 (stereo partly shown)
**Query** Lab note: order the above by reported DC50, lowest first, highest last. Write the labels out in the order the request specifies.
**Result** c, b, d, a
(c: 6 nM, b: 9 nM, d: 14 nM, a: 49 nM)
